- tested.system: huPD-L1 (Homo sapiens, UniProt Q9NZQ7)
- Sequence (Q9NZQ7 19-290): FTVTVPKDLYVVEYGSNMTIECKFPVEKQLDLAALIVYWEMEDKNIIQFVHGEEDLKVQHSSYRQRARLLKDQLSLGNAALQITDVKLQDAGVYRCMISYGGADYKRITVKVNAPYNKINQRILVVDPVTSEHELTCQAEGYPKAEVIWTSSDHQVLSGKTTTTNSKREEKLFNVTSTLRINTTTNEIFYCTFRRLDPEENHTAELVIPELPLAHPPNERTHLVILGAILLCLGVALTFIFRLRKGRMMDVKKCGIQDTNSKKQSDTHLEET
- assay.protocol: Flow binding to CHO cells stably expressing PD-L1
- Set-up: huCTLA4 and huPD-L1, full-length mammalian surface expression constructs were generated; expressed in transfected cells; host or cells: CHO cells, lentiviral transduction, sorted to >98% purity
- setup.conditions: Table E4; MFI ratio to WT CD80 ECD-Fc (R&D) at 33.3 nM
PD-L1 Fold change to WT CD80 by entry:

{"columns": ["molecule", "PD-L1 Fold change to WT CD80"],
 "data": [
  ["E35D/L85Q/K93I/E95V/L97Q (protein) VIHVTKEVKEVATLSCGHNVSVEELAQTRIYWQKDKKMVLTMMSGDMNIWPEYKNRTIFDITNNLSIVILALRPSDEGTYECVVQKYEKDAFTRVHQAEVTLSVKAD", 1.67],
  ["Q33L/E35D/M47I/N48D/A71G (protein, UniProt P33681 35-288, looked up, variant Q33L E35D M47I N48D A71G) T-lymphocyte activation …: VIHVTKEVKEVATLSCGHNVSVEELAQTRIYWLKDKKMVLTMMSGDIDIWPEYKNRTIFDITNNLSIVILGLRPSDEGTYECVVLKYEKDAFKREHLAEVTLSVKADFPTPSISDFEIPTSNIRRIICSTSGGFPEPHLSWLENGEELNAINTTVSQDPETELYAVSSKLDFNMTTNHSFMCLIKYGHLRVNQTFNWNTTKQEHFPDNLLPSWAITLISVNGIFVICCLTYCFAPRCRERRRNERLRRESVRPV", 2.62],
  ["E35D/D46E/M47V/N63D/L85Q (protein, UniProt P33681 35-288, looked up, variant E35D D46E M47V N63D L85Q) T-lymphocyte activation …: VIHVTKEVKEVATLSCGHNVSVEELAQTRIYWQKDKKMVLTMMSGEVNIWPEYKNRTIFDITDNLSIVILALRPSDEGTYECVVQKYEKDAFKREHLAEVTLSVKADFPTPSISDFEIPTSNIRRIICSTSGGFPEPHLSWLENGEELNAINTTVSQDPETELYAVSSKLDFNMTTNHSFMCLIKYGHLRVNQTFNWNTTKQEHFPDNLLPSWAITLISVNGIFVICCLTYCFAPRCRERRRNERLRRESVRPV", 5.88],
  ["E35D/M47I/L85Q/D90G (protein, UniProt P33681 35-288, looked up, variant E35D M47I L85Q D90G) T-lymphocyte activation …: VIHVTKEVKEVATLSCGHNVSVEELAQTRIYWQKDKKMVLTMMSGDINIWPEYKNRTIFDITNNLSIVILALRPSDEGTYECVVQKYEKGAFKREHLAEVTLSVKADFPTPSISDFEIPTSNIRRIICSTSGGFPEPHLSWLENGEELNAINTTVSQDPETELYAVSSKLDFNMTTNHSFMCLIKYGHLRVNQTFNWNTTKQEHFPDNLLPSWAITLISVNGIFVICCLTYCFAPRCRERRRNERLRRESVRPV", 3.01],
  ["E35D/M47V/N48KN68M/K89N (protein) VIHVTKEVKEVATLSCGHNVSVEELAQTRIYWQKDKKMVLTMMSGDVKIWPEYKNRTIFDITNNLSIMILALRPSDEGTYECVVLKYENDAFKREHLAEVTLSVKAD", 7.56],
  ["E35D/T41S/M43V/M47I/L70M/A71G (protein, UniProt P33681 35-288, looked up, variant E35D T41S M43V M47I L70M A71G, Fc fusion) T-lymphocyte activation …: VIHVTKEVKEVATLSCGHNVSVEELAQTRIYWQKDKKMVLSMVSGDINIWPEYKNRTIFDITNNLSIVIMGLRPSDEGTYECVVLKYEKDAFKREHLAEVTLSVKADFPTPSISDFEIPTSNIRRIICSTSGGFPEPHLSWLENGEELNAINTTVSQDPETELYAVSSKLDFNMTTNHSFMCLIKYGHLRVNQTFNWNTTKQEHFPDNLLPSWAITLISVNGIFVICCLTYCFAPRCRERRRNERLRRESVRPV", 1.09],
  ["R29H/E35D/M43V/M47I/I49V (protein, UniProt P33681 35-288, looked up, variant R29H E35D M43V M47I I49V) T-lymphocyte activation …: VIHVTKEVKEVATLSCGHNVSVEELAQTHIYWQKDKKMVLTMVSGDINVWPEYKNRTIFDITNNLSIVILALRPSDEGTYECVVLKYEKDAFKREHLAEVTLSVKADFPTPSISDFEIPTSNIRRIICSTSGGFPEPHLSWLENGEELNAINTTVSQDPETELYAVSSKLDFNMTTNHSFMCLIKYGHLRVNQTFNWNTTKQEHFPDNLLPSWAITLISVNGIFVICCLTYCFAPRCRERRRNERLRRESVRPV", 0.13]
]}
